Tested on: Human betaherpesvirus 5
ASSAY: Antiviral activity against HCMV Davis infected in HEL cells assessed as reduction in virus plaque formation
Type: functional, organism-based
SETUP_CONDITIONS: Human betaherpesvirus 5, Davis
EXPERIMENTAL_ENDPOINT: pEC50
// pEC50: -log10(molar conc.)

| MOLECULE | NUMERIC_RESULT |
| --- | --- |
| CC(CO)(Cn1ccc(N)nc1=O)OCP(=O)(O)O (racemic) | 4.43 |
| Nc1nc2c(ncn2COCCO)c(=O)[nH]1 | 5.68 |

Asked: Please give the measured pEC50 for this molecule: CC(CO)(Cn1ccc(=O)[nH]c1=O)OCP(=O)(O)O (racemic)
Given back: 3.73

Asked: Please give the measured pEC50 for this molecule: CC(CO)(Cn1cnc2c(N)ncnc21)OCP(=O)(O)O (racemic)
Given back: 3.50

Asked: Please give the measured pEC50 for this molecule: CC(CO)(Cn1cnc2c(=O)[nH]c(N)nc21)OCP(=O)(O)O (racemic)
Given back: 5.27

Asked: Please give the measured pEC50 for this molecule: O=c1[nH]c(=O)n([C@H]2C[C@H](O)[C@@H](CO)O2)cc1/C=C/Br
Given back: 6.47

Cited source for all entries: ChEMBL document CHEMBL5120909
